assay: Pharmacokinetics of compound I-1 in the dog by intravenous, oral gavage and oral capsule routes; format: in vivo, beagle dogs; conditions: male, beagle, dog, plasma, po, 10 mg/kg, Group 2: PO Gavage 10 mg/kg; 4 h; Subject 1; read-out: Concentration at time point
experimental-endpoint: concentration at 4 h (ng/mL)
Your answer is read as ng/mL, so omit the unit and give the number.

## Input Name the recorded concentration at 4 h for CC(C)(O)c1nc2ccccc2cc1N .
## Output 909

====

assay: Pharmacokinetics of compound I-1 in the dog by intravenous, oral gavage and oral capsule routes; type: in vivo, beagle dogs; conditions: male, beagle, dog, plasma, iv, 3 mg/kg, Group 1: IV 3 mg/kg; 4 h; Subject 1; read-out: Concentration at time point
experimental-endpoint: concentration at 4 h (ng/mL)
Your answer is read as ng/mL, so omit the unit and give the number.

## Input Name the recorded concentration at 4 h for CC(C)(O)c1nc2ccccc2cc1N .
## Output 259
